System: Mycobacterium tuberculosis
Experiment: Antimycobacterial activity against multidrug resistant Mycobacterium tuberculosis 9449/2007 after 14 days by micromethod
Format: functional
Conditions: 9449/2007, 336 h
# maps each entry to its MIC
The answer consists of two parts: a number and, after it, its unit.

Task item: State, in one line, measured MIC of O=C(Nc1ccc(C(F)(F)F)cc1)c1cc(Br)ccc1O
Reply: 2 µM

---
Task item: State, in one line, measured MIC of O=C(Nc1ccc(C(F)(F)F)cc1)c1cc(Cl)c(Br)cc1O
Reply: 2 µM

Task item: State, in one line, measured MIC of O=C(Nc1ccc(C(F)(F)F)cc1)c1ccc(Br)cc1O
Reply: 1 µM

Task item: State, in one line, measured MIC of O=C(Nc1ccc(C(F)(F)F)cc1)c1cc(Cl)ccc1O
Reply: 0.5 µM

Task item: State, in one line, measured MIC of O=C(Nc1ccc(C(F)(F)F)cc1)c1cc(Br)c(Br)cc1O
Reply: 2 µM

Task item: State, in one line, measured MIC of O=C(Nc1ccc(C(F)(F)F)cc1)c1cc(Cl)c(Cl)cc1O
Reply: 2 µM

Task item: State, in one line, measured MIC of NNC(=O)c1ccncc1 [ISONIAZID]
Reply: 16 µM

Task item: State, in one line, measured MIC of O=C(Nc1ccc(C(F)(F)F)cc1)c1ccc(Cl)cc1O
Reply: 2 µM

Task item: State, in one line, measured MIC of O=C(Nc1ccc(C(F)(F)F)cc1)c1cc(Br)c(Cl)cc1O
Reply: 2 µM
